B1: TOR1AIP2 (parent)
chain: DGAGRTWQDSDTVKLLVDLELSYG

Variants of: B1
protocolNotes: protein stability index of a GFP-peptide fusion (GPS, HEK-293T) (PSI 1-6); higher = more stable;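 further: lentivirally expressed fusions sorted by FACS into six bins by GFP to DsRed ratio, PSI derived from sequencing read proportions per bin multiplied by bin number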
measurementContext: c terminus: a fixed tail appended
Rule: protein stability index under 2 gives Condition not met, otherwise Condition met.

Below are worked cases with known answers.
mutation: L19A
answerLabel: Condition met
//
mutation: G2K
answerLabel: Condition met
//
mutation: L19G
answerLabel: Condition met

Prompt: Does protein stability index meet or surpass 2 for `T6C` ?
Response: Condition not met

Prompt: Does protein stability index meet or surpass 2 for `E20T` ?
Response: Condition not met

Prompt: Does protein stability index meet or surpass 2 for `Y23I` ?
Response: Condition not met

Prompt: Does protein stability index meet or surpass 2 for `L19M` ?
Response: Condition met

Prompt: Does protein stability index meet or surpass 2 for `T6Y` ?
Response: Condition not met
